Below, each of the variants is paired with its reported yeast fitness value.
B1: tRNA (parent)
chain: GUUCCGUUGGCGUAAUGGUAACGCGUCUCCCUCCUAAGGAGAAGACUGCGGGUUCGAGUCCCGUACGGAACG

Variants of: B1
Experiment: yeast fitness relative to wild type (ratio to wild type); higher = fitter; tRNA-Arg(CCU), competitive growth, 37 C, YPD
Fewer inactive variants are shown than the library holds.
Answer using only a numeral; do not append any unit.

IN: What does the record list as yeast fitness for GUUCCGUUGGCGUAGUGGUAACGCGUCUCCCUCCUGAGGAGAACACUGCGGGUUCGAGUCCCGUACGGAACG [A15G A36G G44C] ?
OUT: 0.659

IN: Another variant: GUGACGUUGGCGUAAUGGUAACGCGUCUCCCUCCUAAGGAGAAGACUGCGGGUUCGAGUCCCGUACGGAACG [U3G C4A]
OUT: 0.949

IN: Continue with GUUCUGUUGGUGUAAUGGUAACGCGUCUACCUCCUAAGGCGAAGCCUGCGGGUUCGAGUCGCGUACGGAACG [C5U C11U C29A A40C A45C C61G]
OUT: 0.612

IN: Also, GUUCCGUUGGCGUAAUGGUAACGCGUCUCCCUCCUAAGGAGAAGACAGCGGGUUCGAGUCGCGUACGGAACG [U47A C61G] please.
OUT: 0.69

IN: Let us now turn to GUUCCGUUGGUGUGAUGGUAACGCGUCUCCCUCCUACGGAGAAGACUGCGGGUUCGAGUCCCGUACGGAACG [C11U A14G A37C]
OUT: 0.737

IN: Same thing, different variant: GUUACGUUGGCGUAAUGGUAACGCGACUCCCGCCUAAGGAGAAGACUGCGGGUUCGAGUCCCGUGCGGAACG [C4A U26A U32G A65G]
OUT: 0.793

IN: Next variant: GCUCCGUUGGCGUAAUGGUAACGCGUCCCCCUCCUAUGGAGAAGACUGCGGGAUCGAGUCCCGUACGGAACG [U2C U28C A37U U53A]
OUT: 0.547

IN: Input GUUUGGUUGGCGUAAUGGUAACGCGUCUCCCUCCUAAGGAGAAGGCUGCGGGUUCGAGUCCCGUACGGAACG [C4U C5G A45G]
OUT: 0.634

IN: Next record, please: GUUCCCUUGGCGUAAUGGUAACGCGUCUCCCUCCUAAGCAGAAGACUGCGGGUUCGAGUCCCGUACGGAACG [G6C G39C]
OUT: 0.7

IN: What about GUACCGUUGGCGUAAUGGUAACGCGUCUCCUUCCUAAGGAGAAGACUGCGGGUUCGUGUCCCGUACGGAACG [U3A C31U A57U] ?
OUT: 0.598

IN: Entry to check: GUUCCGUUGGCGUAAUGGUAACGCGUCUCCCUCCUAAGGAGAAGACUGCGGGUUCGAGUCCCGUACCGCACG [G67C A69C]
OUT: 0.651

IN: What about GUUCCGUUGGCGUAAUGGUAACGCGUCUCCCUCCUCAGGAGAAGACUGCGGGUUCGAAUCCCGUACGGAACG [A36C G58A] ?
OUT: 0.618

IN: And for GUUCCGUUGGCGUAAUGGUAACACGUCUCCCUCCUAAGGAGAAGACUGCGGGUUCGAGUCCCGUAGGGAACG [G23A C66G] ?
OUT: 0.659

IN: Likewise for GGUCCGUUGGCGUAGUGGUAACGCGUCUCCCUCCUAAGGAGAAGACUGCGGGUUCGAGUCCCGUACGGAACG [U2G A15G] ?
OUT: 0.812

IN: Now the variant GUUCCGUUGGCGUAAUGGUAACGCGUCUCCCUCCUAAGGAGCAGACUCCGGGUUCGAGUCCCGUACAGAACG [A42C G48C G67A]
OUT: 0.574

IN: Moving on to GUUCCGUUGGCGUAAUGGUAACGCGUCUCCCUCCUAAGGACAAGACUGCGGGUUCGAGUCCCGUACAGAACG [G41C G67A]
OUT: 0.89

IN: Next record, please: GUUCCGUUGGCGUAAUGGUAACGCGUCUCCCUCCCAAGGAGAAGACUGCGGGUUCGAGUCCUGUACGGAACG [U35C C62U]
OUT: 0.882

IN: Check GUUCCGUUGGCGUAAUGGUAACGCGUCUCCCUCCUAAGGAGAAGACUGGGGGUUCGAGUCCCGUACAGAACG [C49G G67A] too.
OUT: 0.908

IN: Also, GUUCCGUUGGCGUAAUGGUAACGCGUCUCCCUGCUGAGGAGAAGACUGCGGGUUCGAGUCCCGUACGGAACG [C33G A36G] please.
OUT: 0.699

IN: What do you get for GUUCCGUUGGCGUAAUGGUAACGCGUUUCCCUCCUAAGGGGAAGACUGCGGGUUCGAGUCCCGUACGGAACG [C27U A40G] ?
OUT: 0.834
